Target: T1, human TIGIT expressed on cells (human, UniProt Q495A1 22-244)
T1 construct: whole, on cells; on Jurkat E6.1 cells transduced with human TIGIT, on Promega TIGIT Effector cells or on human primary T cells; the assay field says which; also called hTIGIT; Jurkat-hTIGIT
T1 sequence (looked up): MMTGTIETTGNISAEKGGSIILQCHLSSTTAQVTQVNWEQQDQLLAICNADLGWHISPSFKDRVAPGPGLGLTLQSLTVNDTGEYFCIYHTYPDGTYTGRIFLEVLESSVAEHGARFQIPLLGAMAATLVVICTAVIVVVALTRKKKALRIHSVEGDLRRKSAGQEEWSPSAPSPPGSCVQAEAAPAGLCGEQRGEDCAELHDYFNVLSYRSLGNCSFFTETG
Assay: flow cytometry, primary CD8+ T cells of healthy human PBMC, MFI
MEASUREMENT LABEL: Fold change of EC50 over EC50 of best clone (31282_wu)

INSERT INTO assay_data (binder, value_measured) VALUES
  ('31C6 (MEB125.31C6.A1.205 VH4/VL1; comparative anti-TIGIT antibody, human IgG1) (antibody, V domains shown, from WO2016/028656; made in HEK cells as human IgG1; also called 3106 (as the text prints it)) VH: EVQLVQSGAEVKKPGASVKVSCKASGYTFSSYVMHWVRQAPGQGLEWIGYIDPYNDGAKYAQKFQGRVTLTSDKSTSTVYMELSSLRSEDTAVYYCARGGPYGWYFDVWGQGTTVTVSS VL: DIQMTQSPSSLSASVGDRVTITCRASEHIYSYLSWYQQKPGKAPKLLIYNAKTLAEGVPSRFSGSGSGTDFTLTISSLQPEDFATYYCQHHFGSPLTFGQGTRLEIK', '2 fold'),
  ('22G2 (comparative anti-TIGIT antibody, human IgG1) (antibody, V domains shown, from WO2016/106302; made in HEK cells as human IgG1) VH: QVHLQESGPGLVKPSETLSLTCTVSGGSVSSGIYYWSWIRQPPGKGLEWIGYIYYSGSTNYNPSLKSRVTISVDTSKNQFSLKLSSVTAADTAVYYCARDYYVSGNYYNVDYYFFGVDVWGQGTTVTVSS VL: EIVLTQSPATLSLSPGERATLSCRASQSVSSYLAWYQQKPGQAPRLLIYDASNRATGIPARFSGSGSGTDFTLTISSLEPEDFAVYYCQQRSNWPPLFTFGPGTKVDIK', '6.1 fold'),
  ('TIG1 (comparative anti-TIGIT antibody, human IgG1) (antibody, V domains shown, from WO2017/152088; made in HEK cells as human IgG1) VH: DVQLVESGGGLVQPGGSRKLSCAASGFTFSNFGMHWVRQAPEKGLEWVAFISSGSSSIYYADTVKGRFTISRDNPKNTLFLQMTSLRSEDTAMYYCARMRLDYYAMDYWGQGTSVTVSS VL: DVQITQSPSYLAASPGETITINCRASKSISKYLAWYQEKPGKTNKLLIYSGSTLQSGIPSRFSGSGSGTDFTLTISSLEPEDFAMYYCQQHNEYPWTFGGGTKLEIK', '2 fold'),
  ('313M32 (comparative anti-TIGIT antibody, human IgG1) (antibody, V domains shown, from WO2016/191643; made in HEK cells as human IgG1; the VL as printed ends at ...TFG (FR4 not complete); also called 313M2) VH: QVQLQESGPGLVKPSETLSLTCAVSGYSITSDYAWNWIRQPPGKGLEWIGYISYSGSTSYNPSLRSRVTISRDTSKNQFFLKLSSVTAADTAVYYCARRQVGLGFAYWGQGTLVTVSS VL: DIQMTQSPSSLSASVGDRVTITCKASQDVSTAVAWYQQKPGKAPKLLIYSASYRYTGVPSRFSGSGSGTDFTFTISSLQPEDIATYYCQQHYSTPWTFG', '7.5 fold');
